# testMethodNotes: qHTS assay to identify small molecule phospholipidosis (PLD) inducers (AID 1259344); also: % is scaled to controls: 0 for no effect and ±100 for the full control effect
# conditionSummary: HepG2 phospholipidosis, LipidTOX Red imaging, 24 h; series mostly up to 38.3 µM
# Description: National Center for Advancing Translational Sciences [NCATS] Drug-induced Phospholipidosis (PLD) caused by cationic amphiphilic drugs is characterized by the appearance of unicentric or multicentric-lamellar bodies when viewed under electron microscope. […] Drug induced phospholipid accumulation is stained with the LipidTox dyes in red color which then is determined using an automated high content screening system. […]
Records with an inconclusive call do not appear. Activity calls are given as the source filed them. Calls follow the shape of the dose curve; as a rule, active = well fitted activation curve with a large enough effect; inconclusive = small, poorly fitted or top-dose-only effect; inactive = flat fitted curve, though single readings scatter.
observedProperty: PLD induction

molecule=CCCCCCCCCC(=O)O[C@H]1CC[C@H]2[C@@H]3CCC4=CC(=O)CC[C@]4(C)[C@H]3CC[C@]12C reportedmeasurement=inactive
molecule=CC(C)[C@H]1C(=O)N2CCC[C@H]2[C@]2(O)O[C@](NC(=O)[C@@H]3C[C@@H]4c5cccc6[nH]cc(c56)C[C@H]4N(C)C3)(C(C)C)C(=O)N12 reportedmeasurement=inactive
molecule="CC[C@H]1[C@@H]2C[C@H]3[C@@H]4N(C)c5ccccc5[C@]45C[C@@H](C2[C@H]5O)N3[C@@H]1O (stereo not given in full)" reportedmeasurement=inactive
molecule=CC(=O)[C@H]1CC[C@H]2[C@@H]3CC[C@@H]4C[C@H](O)CC[C@]4(C)[C@H]3CC[C@]12C reportedmeasurement=inactive
molecule=c1csc(C2(N3CCCCC3)CCCCC2)c1 reportedmeasurement=inactive
molecule=CCN(CC)C(=O)N[C@H]1C[C@@H]2c3cccc4[nH]cc(c34)C[C@H]2N(C)C1 reportedmeasurement=inactive
molecule=c1ccc2c(c1)Sc1ccccc1N2C[C@@H]1CN2CCC1CC2 reportedmeasurement=inactive
molecule="OC(c1ccccc1)(c1ccccc1)C1CN2CCC1CC2 (stereo not given)" reportedmeasurement=inactive
molecule="CCC(N)Cc1c[nH]c2ccccc12 (stereo not given)" reportedmeasurement=inactive
molecule=Oc1ccc2c3c1O[C@H]1[C@@H](O)C=C[C@H]4[C@H](C2)NCC[C@@]341 reportedmeasurement=inactive
molecule=[S]=[Sb](=[S])[S][Sb](=[S])=[S] reportedmeasurement=inactive
molecule=CCN1C[C@]2(COC)[C@H](O)C[C@H](OC)[C@@]34[C@@H]5C[C@@]6(O)[C@H](OC(=O)c7ccccc7)[C@@H]5[C@@](OC(C)=O)([C@@H]([C@H](OC)[C@H]23)[C@@H]14)[C@@H](O)[C@@H]6OC reportedmeasurement=inactive
molecule=COc1ccc(OC)c(C[C@H](C)N)c1 reportedmeasurement=inactive
molecule=C[C@H]1[C@H]2Cc3ccc(O)cc3[C@]1(C)CCN2CCc1ccccc1 reportedmeasurement=inactive
molecule="C1CN(P2(N3CC3)=NP(N3CC3)(N3CC3)=NP(N3CC3)(N3CC3)=N2)CCO1 (stereo not given)" reportedmeasurement="0.928% [at 7.66 µM] (inactive)"
molecule=C=CCC1([C@@H](C)CCC)C(=O)NC(=O)NC1=O reportedmeasurement=inactive
molecule=C[C@]12CCC(=O)C[C@@H]1CC[C@@H]1[C@@H]2CC[C@@]2(C)[C@H]1CC[C@]2(C)O reportedmeasurement=inactive
molecule=COc1cc(C[C@H](C)N)c(OC)cc1C reportedmeasurement=inactive
molecule="CNC(C)Cc1ccccc1 (stereo not given)" reportedmeasurement=inactive
molecule=C[C@]12CC[C@@H]3c4ccc(OC(=O)N(CCCl)CCCl)cc4CC[C@H]3[C@@H]1CC[C@@H]2OP(=O)(O)O reportedmeasurement=inactive
